System: RPMI-8226 leukemia
Test protocol: NCI tumour cell line growth inhibition, 48 h
Documented TGI across a set of molecules

# Molecule, TGI
rows = [
    ("CC(C)(C)c1cc(C(CO)OCCOCCO)cc(C(C)(C)C)c1O (centres undefined)", "> 100 µM"),
    ("COc1ccc(C(OC(C)=O)C2C(=C(C#N)C#N)c3ccccc3C2=C(C#N)C#N)cc1 (centres undefined)", "60.4 µM"),
    ("O=C1NC(=S)NNC12c1ccccc1-c1ccccc12", "> 10 µM"),
    ("S=c1[nH]n2c(COc3cccc(OCc4nnc5sc(=S)[nH]n45)c3)nnc2s1", "> 100 µM"),
    ("CN1C(=O)C(CC=O)(C(C)(C)C)c2ccccc21 (centres undefined)", "> 100 µM"),
    ("CC(CC(=O)O)C(C(=O)O)C(=O)O (centres undefined)", "> 100 µM"),
    ("CC(C)C1=C(Cc2ccccc2)C(=O)O/C1=C\\c1cc(Cl)c(O)c(Cl)c1", "65.6 µM"),
    ("CCc1nc2ccc(N=NN(C)C)cc2[nH]1", "> 100 µM"),
    ("COc1ccc(C(O)c2nccn2C)c(OC)c1 (centres undefined)", "> 100 µM"),
    ("O=C1/C(=C/c2ccccc2)NC(=S)N1CN1CCOCC1", "> 100 µM"),
    ("O=c1c2c(-c3ccccc3)onc2n(-c2ccccc2)c(=O)n1-c1ccccc1", "> 100 µM"),
    ("O=C(O)CSc1n[nH]c(-c2ccccc2)n1", "> 100 µM"),
    ("CCCCCCC[CH2][Sn]1([CH2]CCCCCCC)[O]C(=O)c2cccnc2[S]1", "> 100 µM"),
    ("CC1=CC(=O)[C@@H](O)[C@]2(C)[C@H]3[C@@]4(O)OC[C@]35[C@H]([C@@H](C)[C@H]4O)[C@@H](O)C(=O)O[C@@H]5C[C@@H]12", "> 100 µM"),
]

====

Test system: SR leukemia
Test protocol: NCI tumour cell line growth inhibition, 48 h
Documented TGI across a set of compounds

# Compound, TGI
rows = [
    ("COc1ccc(C(O)c2nccn2C)c(OC)c1 (stereo unspecified)", "> 100 µM"),
    ("N#C/C=C(\\c1ccc([N+](=O)[O-])cc1)n1nnc2cc(Cl)c(Cl)cc21", "> 100 µM"),
    ("Cc1ccc(Cn2c(C)nc3c2C(=O)c2ccccc2C3=O)cc1", "> 100 µM"),
    ("O=C(NS(=O)(=O)OCC(Cl)(Cl)Cl)SCCC(F)(F)C(F)(F)C(F)(F)C(F)(F)C(F)(F)C(F)(F)F", "> 100 µM"),
    ("C#CCN(CC#C)C(=O)C(=O)c1c[nH]c2ccc(OC)cc12", "23.2 µM"),
    ("O=C(NC(=O)c1cn(CCNCCO)c(=O)[nH]c1=O)OCc1ccccc1", "> 100 µM"),
    ("Nc1nc2c(ncn2Cc2ccc(CO)cc2)c(=O)[nH]1", "> 100 µM"),
    ("Nc1nc(N)c(N=Nc2ccc([As](=O)(O)O)cc2)c(=O)[nH]1", "> 100 µM"),
    ("N#C/C(N)=C(\\C#N)NC=NCc1ccccc1", "> 100 µM"),
    ("O=C(c1cc(Cl)cc(Cl)c1)N1CCN(C(=O)c2cc(Cl)cc(Cl)c2)C1=S", "11.3 µM"),
    ("CCOC(=O)C(C)(C)Oc1ccc2c(C)c(-c3ccc(Cl)cc3)c(=O)oc2c1", "> 100 µM"),
]

====

Test system: T-47D breast
Test protocol: NCI tumour cell line growth inhibition, 48 h
Documented TGI across a set of compounds

# Compound, Study target, TGI
measured = [
    ("CCN(CC)c1nc(-c2ccc(Cl)cc2Cl)nc2ccccc12", "T-47D breast", "49.6 µM"),
    ("O=[N+]([O-])c1cc2c(c3nonc13)OCCCCO2", "T-47D breast", "60.5 µM"),
    ("COC(=O)C1(OC(=O)Sc2ccccc2)CCN(C)CC1", "T-47D breast", "> 100 µM"),
    ("CCc1nc2ccc(N=NN(C)C)cc2[nH]1", "T-47D breast", "> 100 µM"),
    ("COc1ccc(C(OCC2OC(n3cc(C)c(=O)[nH]c3=O)CC2n2cc(Cn3cc(Br)c(=O)[nH]c3=O)nn2)(c2ccccc2)c2ccccc2)cc1 (centres undefined)", "T-47D breast", "> 100 µM"),
    ("CC(CCC#N)(CCC#N)C(=O)CC(O)(C(F)(F)F)C(F)(F)F", "T-47D breast", "16.2 µM"),
    ("O=C(NS(=O)(=O)OCC(Cl)(Cl)Cl)SCCC(F)(F)C(F)(F)C(F)(F)C(F)(F)C(F)(F)C(F)(F)F", "T-47D breast", "98.4 µM"),
    ("Oc1cc(O)c2c(c1)OC(c1ccc(O)c(O)c1)C(OC1(c3cc(O)c(O)c(O)c3)Oc3cc(O)cc(O)c3C(O)C1O)C2 (centres undefined)", "T-47D breast", "> 100 µM"),
    ("CS(=O)(=O)CCCn1c(=O)c(Oc2ccc(F)cc2F)cc2cnc(NC3CCOCC3)nc21", "T-47D breast", "> 25 µM"),
    ("COc1cc(C2SCC(=O)N2c2ccc(Cl)c(Cl)c2)cc(OC)c1OC (centres undefined)", "T-47D breast", "> 63.6 µM"),
    ("Cc1cc(OCc2nnc3n2N=C(c2cc(F)c(Cl)cc2Cl)/C(=C/c2ccc(Cl)cc2)S3)ccc1Cl", "T-47D breast", "> 100 µM"),
    ("Cn1cc(C2=C(c3cn(C)c4cc(C(N)=O)ccc34)C(=O)NC2=O)c2ccccc21", "T-47D breast", "> 25 µM"),
    ("CC(C)(C)C(=O)OC(N)/C=C/c1ccccc1 (centres undefined)", "T-47D breast", "> 100 µM"),
    ("Cc1ccsc1/C=N/Nc1ccc2ccccc2n1", "T-47D breast", "> 100 µM"),
    ("COc1cc(C2c3cc4c(cc3C(O)C(CO)C2CO)OCO4)cc(OC)c1OC (centres undefined)", "T-47D breast", "> 100 µM"),
    ("CCOP(=O)(O)C(C)(C)NC", "T-47D breast", "> 100 µM"),
    ("CCCCCC(/C=C/C1CCC(=O)C1CC#C[Si](C)(C)C)OCc1ccccc1 (centres undefined)", "T-47D breast", "85.1 µM"),
    ("C=Cc1c(C)c2cc3nc(cc4[nH]c(cc5nc(cc1[nH]2)C(C)=C5CCC(=O)O)c(CCC(=O)OC)c4C)[C@@]1(C)C3=CC=C(C(=O)OC)[C@H]1C(=O)OC", "T-47D breast", "4.53 µM"),
    ("COC1C(O)=C2C(=O)O/C(C)=C/C=C/C=C/C=C\\CC(c3ccccc3)NC(=O)\\C=C/C=C\\C=C\\C=C\\[C@@]2(C)[C@@H]1O (some centres undefined)", "T-47D breast", "0.158 µM"),
]

====

Test system: MDA-MB-435
Test protocol: NCI tumour cell line growth inhibition, 48 h
Label 1 when TGI is at or above 5 µM; otherwise label 0.

# Compound, Label
records = [
    ("CSc1ncnc2c1cnn2CCCCO", 1),
    ("COc1ccc(-c2nc(SCC(=O)N/N=C/c3ccc(O)c(OC)c3)[nH]c2-c2ccc(OC)cc2)cc1", 1),
    ("COc1cc(C2c3cc4c(cc3C(O)C(CO)C2CO)OCO4)cc(OC)c1OC (configuration not stated)", 0),
    ("CCCCn1c(C)c2c(c1C)C(=O)N(CC(O)CN1CCc3ccccc3C1)C2=O (configuration not stated)", 1),
    ("S=c1[nH]n2c(COc3cccc(OCc4nnc5sc(=S)[nH]n45)c3)nnc2s1", 1),
    ("CC1C[C@]2(C)C(=O)Nc3ccccc3[C@@H]2Nc2ccccc21 (some centres not stated)", 1),
    ("Nc1c(C(=O)Nc2cccc(Br)c2)sc2nc3c(cc12)C(=O)CCC3", 0),
    ("Cn1cnc([N+](=O)[O-])c1S(=O)(=O)Oc1ccccc1", 1),
    ("O=c1cc2oc3cc(O)c(O)cc3c(-c3ccccc3O)c-2cc1O", 1),
    ("COc1ccc(CCN=C2OCc3ccccc32)cc1OC", 1),
    ("C[C@@H]1CCC2[C@@H](C)[C@@H](OCCO[C@H]3OC4O[C@@]5(C)CCC6[C@H](C)CCC([C@H]3C)[C@@]46OO5)OC3O[C@@]4(C)CCC1[C@]32OO4 (some centres not stated)", 1),
]

====

System: UACC-257 melanoma
Test protocol: NCI tumour cell line growth inhibition, 48 h
Documented TGI across a set of compounds
Observable: TGI

# Compound, Observable, Value measured
measured = [
    ("NC12Oc3cc(O)cc(O)c3C1(c1ccc(Cl)cc1)c1c(O)cc(O)cc1O2 (stereo not given)", "TGI", "> 100 µM"),
    ("COc1ccc(NC(=O)/C(N=O)=C(/C)O)cc1", "TGI", "> 100 µM"),
    ("CC(C)(C)C(=O)OC(N)/C=C/c1ccccc1 (stereo not given)", "TGI", "> 100 µM"),
    ("COc1ccc(/C(=N\\NC(=O)C(N)=O)C(c2ccc(OC)cc2)C2(O)C(=O)Nc3c(Cl)cccc32)cc1 (stereo not given)", "TGI", "> 100 µM"),
    ("CC(=O)O[C@H]1CCC2[C@@H]3CCC4=C(O)c5nocc5C[C@]4(C)C3CC[C@@]21C (stereo not given in full)", "TGI", "> 100 µM"),
    ("O=[N+]([O-])c1ccc(S(=O)(=O)N=Ic2ccccc2)cc1", "TGI", "> 100 µM"),
    ("CCCn1c(N)c(C(=O)N/N=C(/C)c2cc3cccc(OC)c3o2)sc1=S", "TGI", "> 100 µM"),
    ("NS(=O)(=O)c1ccc(N(/C=C/C(=O)C(F)(F)F)CC(=O)c2ccc(Cl)cc2)cc1", "TGI", "> 100 µM"),
    ("Cc1cc(OCc2nnc3n2N=C(c2cc(F)c(Cl)cc2Cl)/C(=C/c2ccc(Cl)cc2)S3)ccc1Cl", "TGI", "> 100 µM"),
    ("CN1C(=O)C(CC=O)(C(C)(C)C)c2ccccc21 (stereo not given)", "TGI", "> 100 µM"),
]
